Exercise: state measured max percentage inhibition for each of the binders provided.
Target: T1, human DR3 with the death domain deleted (ΔM339-P417 of SEQ ID NO:1), expressed on CHOK1SV cells (human, UniProt Q93038 25-338)
T1 construct: also called truncated DR3; hDR3 expressing CHO cells
T1 sequence: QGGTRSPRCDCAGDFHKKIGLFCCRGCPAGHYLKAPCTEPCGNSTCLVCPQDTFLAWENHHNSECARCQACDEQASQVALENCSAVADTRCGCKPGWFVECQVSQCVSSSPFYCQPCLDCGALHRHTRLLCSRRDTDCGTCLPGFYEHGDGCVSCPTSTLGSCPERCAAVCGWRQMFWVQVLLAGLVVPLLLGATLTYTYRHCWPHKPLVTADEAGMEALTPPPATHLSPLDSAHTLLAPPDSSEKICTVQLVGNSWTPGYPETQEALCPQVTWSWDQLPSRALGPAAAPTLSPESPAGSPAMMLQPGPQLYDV
Assay: flow cytometry competition: Fab vs TL1A on hDR3-expressing CHO cells
Answer shape: numeric part, then the unit.

Problem: Any idea what max percentage inhibition was measured for 0152 (chimeric Fab of 50F191, human IgG4 constant domain, hinge Cys->Ser) (Fab, V domains shown, IgG4-Ser, chimeric) VH: EVQLVESGGGLVEPGGSLKLSCAASGFTFSTYAMSWVRQSPEKRLEWVAEISSGDSYTYYPDIVTGRFTISRDDAKNTLFLEMSSLRSEDTAIYYCVRDQDYRYDGYYAMDHWGQGTSVTVSS VL: DIVLTQSPASLAVSLGQRATISCRASESVEHYGTSLMQWYQQKPGQPPKLLIYAASNVESGVPARFSGRGSGPDFSLNIHPVEEDDIAMYFCQQSRRIPWTFGGGTKLEIKR ?
Solution: 53%

Problem: Queued: 0228 (humanized Fab of 27F44, IgG4, hz0072VH S49A / hz0072VL) (Fab, V domains shown, IgG4-Cys, hz (humanized IgG4 Fab with the hinge cysteine kept)) VH: EVQLVESGGGLVQPGGSLRLSCAASGFTFSNYDMSWVRQATGKGLEWVAAFSSDGYTFYPGSVKGRFTISRENAKNSLYLQMNSLRAGDTAVYYCARHADYANYPVMDYWGQGTLVTVSS VL: DIQMTQSPSSLSASVGDRVTITCRASKSVSTSGYSYMHWYQQKPGKAPKLLIYLASNLESGVPSRFSGSGSGTDFTLTISSLQPEDFATYYCQHSRELPLTFGGGTKVEIKR
Solution: 78%

Problem: Queued: 0123 (chimeric Fab of 27F44, human IgG4 constant domain, hinge Cys->Ser) (Fab, V domains shown, murine variable domains, human IgG4 constant domain (IgG4-Ser)) VH: EVKLVESGGGLVKPGGSLKLSCSASGFAFSNYDMSWVRQTPEKRLEWVAAFSSDGYTFYPDSLKGRFTISRDNARNTLYLQMSSLGSEDTALYCCARHADYANYPVMDYWGQGTSVTVSS VL: DIVLAQSPASLLVSLGQRATISCRASKSVSTSGYSYMHWYQQKPGQPPKLLIYLASNLESGVPARFSGSGSGTDFTLNIHPVEEEDAATYYCQHSRELPLTFGAGTMLELKR
Solution: 80%

Problem: Queued: 0148 (chimeric Fab of 5F13, human IgG4 constant domain, hinge Cys->Ser) (Fab, V domains shown, IgG4-Ser, chimeric) VH: EVQLVESGGGLVKPGGSLKFSCAVSGFTFSSYVMSWVRQTPEKRLEWVAAISSDSTYTYYLDSVKGRFTISRDNAKNTLYLQMSSLRSEDTAMYYCARQTRSDAMDYWGQGTSVTVSS VL: DIVLTQSPASLAVSLGQRATISCRASESVDNYGNSFMHWYQQKPGQPPKLLIYRASNLESGIPARFSGSGSRTDFTLTINPVEADDVAIYYCQQSNEDPLTFGAGTKLELKR
Solution: 33%
